TEST DETAILS: self-splicing fitness, log relative to wild type (ln ratio); higher = more splicing; Tetrahymena group I intron in knt gene, E. coli kanamycin selection, DiMSum; sequences stand for … in CUCUCU…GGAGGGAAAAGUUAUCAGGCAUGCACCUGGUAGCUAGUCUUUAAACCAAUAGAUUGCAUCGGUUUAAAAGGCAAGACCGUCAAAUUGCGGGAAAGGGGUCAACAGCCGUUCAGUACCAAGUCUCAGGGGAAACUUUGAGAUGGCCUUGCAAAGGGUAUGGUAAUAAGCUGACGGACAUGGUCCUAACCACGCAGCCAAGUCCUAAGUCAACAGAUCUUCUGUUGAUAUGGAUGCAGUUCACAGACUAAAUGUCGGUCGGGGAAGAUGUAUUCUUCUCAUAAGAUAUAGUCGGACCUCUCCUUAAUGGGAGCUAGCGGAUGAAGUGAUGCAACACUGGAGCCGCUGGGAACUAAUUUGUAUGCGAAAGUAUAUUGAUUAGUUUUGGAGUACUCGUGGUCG;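 also: selection with 25 µg/mL kanamycin versus none on LB agar overnight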
TEST SETTINGS: 30 °C
EXPERIMENTAL READOUT: self-splicing fitness (ln)

Guide cases for self-splicing fitness (ln), answers given:
SEQ STRING	self-splicing fitness (ln)
CCUGAGCAAUAUUACGUUGC	-2.07
UCACAGCAAUAUUACGGCCU	-3.61
UCUCAGCAAUAUUACGGAGU	-2.81
CUCCAGCAAUAUUACGAUCG	-1.49
CUUAAGCAAUAUUACGAAGA	-2.98

List the reported self-splicing fitness (ln) of each sequence below.
1. CAUGAGCAAUAUUACGCGAU
2. UCUAAGCAAUAUUACGUAUC
3. AUAAAGCAAUAUUACGGGGG
4. ACACAGCAAUAUUACGAUUC
5. GAAGAGCAAUAUUACGAAUG
6. UGAGAGCAAUAUUACGGGGA
7. CCAUAGCAAUAUUACGUCCG

-1.87
-4.13
-2.77
-1.96
-2.23
-3.16
-0.229

Hello, the source for this data is the supplement of paper PMC7877785, in case you need it.
